Reference source: patent US20190092852A1

measured-target: T1, human IL-33 (R&D Systems, #3625-IL-010/CF) (human, UniProt O95760 112-270)
T1 construct: also called hIL-33; huIL-33
T1 sequence (looked up): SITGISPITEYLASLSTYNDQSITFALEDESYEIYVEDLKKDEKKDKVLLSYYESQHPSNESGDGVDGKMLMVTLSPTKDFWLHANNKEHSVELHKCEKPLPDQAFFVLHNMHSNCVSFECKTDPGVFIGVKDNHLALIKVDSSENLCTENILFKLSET
assay-text: SPR Biacore T200, 37 C
outcome-measure: koff (s⁻¹)
Express the result in s⁻¹ but write the number alone.

What does the data say about its koff? Entry: H1M9566N (antibody, IgG1, V domains shown, also called RG2) VH: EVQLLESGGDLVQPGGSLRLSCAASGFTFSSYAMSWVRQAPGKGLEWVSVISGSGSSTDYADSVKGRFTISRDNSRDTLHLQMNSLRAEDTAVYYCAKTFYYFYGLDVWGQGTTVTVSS VL: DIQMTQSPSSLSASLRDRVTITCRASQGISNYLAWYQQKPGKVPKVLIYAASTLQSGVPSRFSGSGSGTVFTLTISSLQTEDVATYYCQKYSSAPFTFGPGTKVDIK
0.000522

What does the data say about its koff? Entry: H4H9633P (antibody, IgG4, V domains shown, also called RG5) VH: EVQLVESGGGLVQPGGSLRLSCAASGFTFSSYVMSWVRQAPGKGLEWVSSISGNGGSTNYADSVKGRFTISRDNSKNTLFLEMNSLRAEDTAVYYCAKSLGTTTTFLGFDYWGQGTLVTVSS VL: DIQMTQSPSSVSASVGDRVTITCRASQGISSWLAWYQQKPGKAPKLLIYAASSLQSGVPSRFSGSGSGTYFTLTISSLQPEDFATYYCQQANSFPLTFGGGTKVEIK
0.000845

What does the data say about its koff? Entry: H4H9629P (antibody, IgG4, V domains shown, also called RG4) VH: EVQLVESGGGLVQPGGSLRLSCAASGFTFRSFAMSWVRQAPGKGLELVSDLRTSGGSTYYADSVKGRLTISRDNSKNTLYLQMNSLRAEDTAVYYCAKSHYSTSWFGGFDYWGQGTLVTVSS VL: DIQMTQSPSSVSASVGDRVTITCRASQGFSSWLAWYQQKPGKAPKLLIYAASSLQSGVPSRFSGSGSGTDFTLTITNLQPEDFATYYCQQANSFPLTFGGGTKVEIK
0.000738

What does the data say about its koff? Entry: H4H9659P (antibody, IgG4, V domains shown, also called RG7) VH: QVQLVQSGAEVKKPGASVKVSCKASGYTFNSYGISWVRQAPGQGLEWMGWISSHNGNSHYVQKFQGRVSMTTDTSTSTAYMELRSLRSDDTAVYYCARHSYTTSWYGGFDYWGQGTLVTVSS VL: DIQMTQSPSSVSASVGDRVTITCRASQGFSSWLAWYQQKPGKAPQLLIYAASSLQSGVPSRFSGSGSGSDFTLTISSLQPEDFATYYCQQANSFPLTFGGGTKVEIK
0.000498

What does the data say about its koff? Entry: 10C12.38.H6.87Y.58I IgG4 (antibody, V domains shown, also called anti-IL33 10C12.38.H6.87Y.58I IgG4) VH: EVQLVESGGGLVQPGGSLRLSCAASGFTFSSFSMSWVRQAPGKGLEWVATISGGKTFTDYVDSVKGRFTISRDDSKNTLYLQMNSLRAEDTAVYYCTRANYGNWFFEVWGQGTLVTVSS VL: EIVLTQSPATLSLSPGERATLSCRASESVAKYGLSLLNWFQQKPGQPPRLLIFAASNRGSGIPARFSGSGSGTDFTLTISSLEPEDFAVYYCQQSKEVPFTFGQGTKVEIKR
0.000547

What does the data say about its koff? Entry: H4H9640P (antibody, IgG4, V domains shown, also called RG6) VH: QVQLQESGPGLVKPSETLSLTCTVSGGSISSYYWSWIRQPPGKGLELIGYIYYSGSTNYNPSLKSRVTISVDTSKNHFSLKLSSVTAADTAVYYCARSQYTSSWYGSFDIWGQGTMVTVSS VL: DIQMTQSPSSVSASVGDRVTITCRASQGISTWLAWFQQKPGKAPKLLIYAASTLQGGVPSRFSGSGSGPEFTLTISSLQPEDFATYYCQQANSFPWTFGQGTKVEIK
0.000626

What does the data say about its koff? Entry: H1M9559N (antibody, IgG1, V domains shown, also called RG1) VH: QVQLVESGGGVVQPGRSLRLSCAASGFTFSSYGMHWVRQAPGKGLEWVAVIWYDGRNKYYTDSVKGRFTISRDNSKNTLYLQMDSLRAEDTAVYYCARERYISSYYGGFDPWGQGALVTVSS VL: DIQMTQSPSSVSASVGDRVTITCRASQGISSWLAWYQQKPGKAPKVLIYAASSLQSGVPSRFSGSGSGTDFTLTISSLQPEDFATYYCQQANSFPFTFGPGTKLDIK
0.000888
